Test system: LOX IMVI melanoma
method.notes: NCI tumour cell line growth inhibition, 48 h
measure: TGI

> print(dat)
                                   compound  measure    result
1  CC(=O)Nc1ccc(CNc2cc(=O)[nH]c(=O)[nH]2)cc1      TGI  > 100 µM
2         COc1cc(/C=C/C(C)=O)ccc1OP(=O)(O)O      TGI  > 100 µM
3           O=C(Cn1nc(Br)c(Br)c1Br)c1ccccc1      TGI   32.2 µM
4  Cc1cc(NS(=O)(=O)c2ccc(NC(=O)c3cccc4c(N)c5ccccc5nc34)cc2)no1      TGI   65.8 µM
5  COc1ccc2c(c1)c(C1(c3cn(C)c4ccc(OC)cc34)C(=O)Nc3ccc(F)cc31)cn2C      TGI  > 100 µM
6  c1ccc(C2SCC3=Nc4ccccc4CN32)cc1 (stereo unspecified)      TGI  > 100 µM

Every entry's value here was drawn from PubChem BioAssay (NCI).
